This collection of values is drawn from patent US10660877B2.

# system: human TLR7 (Homo sapiens (Human), UniProt Q9NYK1)
# Sequence (Q9NYK1 27-1049): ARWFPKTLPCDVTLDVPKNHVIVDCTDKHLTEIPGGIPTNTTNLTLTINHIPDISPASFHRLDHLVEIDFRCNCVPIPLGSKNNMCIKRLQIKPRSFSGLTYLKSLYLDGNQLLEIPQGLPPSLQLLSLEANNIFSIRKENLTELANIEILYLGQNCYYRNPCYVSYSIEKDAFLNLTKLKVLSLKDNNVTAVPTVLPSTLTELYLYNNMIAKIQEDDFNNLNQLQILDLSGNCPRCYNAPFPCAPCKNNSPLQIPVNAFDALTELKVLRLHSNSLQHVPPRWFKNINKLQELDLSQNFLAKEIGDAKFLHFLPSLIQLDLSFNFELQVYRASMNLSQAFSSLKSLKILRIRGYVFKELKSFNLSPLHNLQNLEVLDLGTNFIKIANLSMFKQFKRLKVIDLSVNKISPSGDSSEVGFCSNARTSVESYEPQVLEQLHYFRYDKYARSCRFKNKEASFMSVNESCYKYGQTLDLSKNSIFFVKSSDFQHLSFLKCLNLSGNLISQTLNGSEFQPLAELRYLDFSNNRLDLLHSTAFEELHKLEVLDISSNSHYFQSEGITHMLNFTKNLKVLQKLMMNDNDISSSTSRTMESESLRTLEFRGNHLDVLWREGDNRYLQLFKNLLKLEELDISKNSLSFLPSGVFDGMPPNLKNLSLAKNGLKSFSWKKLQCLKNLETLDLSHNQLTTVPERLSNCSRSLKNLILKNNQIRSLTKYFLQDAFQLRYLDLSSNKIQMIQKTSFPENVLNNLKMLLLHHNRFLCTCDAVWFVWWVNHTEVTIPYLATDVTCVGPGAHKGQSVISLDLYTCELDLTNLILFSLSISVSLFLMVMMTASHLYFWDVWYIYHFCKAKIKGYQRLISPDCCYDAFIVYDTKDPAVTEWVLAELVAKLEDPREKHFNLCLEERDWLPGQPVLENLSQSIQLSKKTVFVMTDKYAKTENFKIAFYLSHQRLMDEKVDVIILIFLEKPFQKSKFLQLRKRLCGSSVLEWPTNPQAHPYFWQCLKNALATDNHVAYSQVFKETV
# assay.details: TLR7 inhibition reporter assay (HEK-Blue cells, SEAP reporter, gardiquimod stimulation)
# Assay type: cell-based
# run.conditions: HEK-Blue cells overexpressing human TLR7, gardiquimod 7.5 μM
pIC50: −log10 of the molar value.
observed.property: pIC50

1. Cc1cc(-c2[nH]c3ccc(C4CCN(C(=O)[C@H]5CCC[C@@]5(C)N)CC4)cc3c2C(C)C)ccn1 [Example 569] ... 7.84
2. CCc1c(-c2ccnc(C)c2)[nH]c2ccc(C3CCN(C(=O)[C@@H]4CCCN4)CC3)cc12 [Example 629] ... 7.22
3. Cc1cc(-c2[nH]c3ccc(C4CCN(C)CC4)cc3c2C(C)C)cc(C)n1 [Example 429] ... 8.66
4. Cc1cc(-c2[nH]c3ccc(C4CCN(C(=O)[C@@H]5C[C@H](O)CCN5)CC4)cc3c2C(C)C)ccn1 [Example 581] ... 7.97
5. Cc1cc(-c2[nH]c3ccc(C4CCN(S(=O)(=O)c5ccc(Cl)cc5)CC4)cc3c2C(C)C)ccn1 [Example 542] ... 5.93

A = COc1cc(-c2[nH]c3ccc(C4CCN(CC(F)(F)F)CC4)cc3c2C(C)C)ccn1 [Example 639]
B = Cc1ccc(OC(=O)N2CCC(c3ccc4[nH]c(-c5ccnc(C)c5)c(C(C)C)c4c3)CC2)cc1 [Example 557]
Ask | Which gives the smaller pIC50 number: A or B ? Answer = label.
Reply | A
(A: 5.51, B: 5.82)

1 = CNCCN1CCC(c2ccc3[nH]c(-c4cc(OCCOC)ncc4F)c(C)c3c2)CC1 [Example 749]
2 = Cc1cc(-c2[nH]c3ccc(C4CCN(C(C)C)CC4)cc3c2C(C)C)c(C)cn1 [Example 641]
Ask | Between 1 and 2 , which one shows the larger pIC50 value? Please indicate the selected item by its label.
Reply | 2
(2: 7.48, 1: 5.32)

P = Cc1cc(-c2[nH]c3ccc(C4CCN(CC(=O)N5C[C@H](C(F)(F)F)C[C@@H]5CO)CC4)cc3c2C(C)C)cc(C)n1 [Example 301]
Q = Cc1cc(-c2[nH]c3ccc(C4CCN(CC5CCC5)CC4)cc3c2C(C)C)cc(C)n1 [Example 467]
R = CCc1c(-c2ccncc2)[nH]c2ccc(C3CCN(C4CCN(CC(C)C)CC4)CC3)cc12 [Example 779]
Ask | Please list these compounds in decreasing order of pIC50. Return the labels ranked in the requested order, please.
Reply | Q, P, R
(Q: 8.60, P: 7.71, R: 5.68)

---

# system: human TLR7 (Homo sapiens (Human), UniProt Q9NYK1)
# assay.details: TLR7 inhibition reporter assay (HEK-Blue cells, SEAP reporter, gardiquimod stimulation)
# Assay type: cell-based
# run.conditions: HEK-Blue cells overexpressing human TLR7, gardiquimod 7.5 μM
pIC50: −log10 of the molar value.
observed.property: pIC50

Here's what some known entries look like.
1) Cc1cc(-c2[nH]c3ccc(C4CCN(S(=O)(=O)c5cn(C)c(C)n5)CC4)cc3c2C(C)C)ccn1 ... 7.13
2) COc1cc(-c2[nH]c3ccc(C4CCNCC4)cc3c2C(C)C)cc(C2CC2)n1 ... 7.31

P = Cc1cc(-c2[nH]c3ccc(C4CCN(C(=O)C5(C)CCN(C)CC5)CC4)cc3c2C(C)C)cc(C)n1
Q = Cc1cc(-c2[nH]c3ccc(C4CCN(C(=O)c5cnn(C)c5)CC4)cc3c2C(C)C)cc(C)n1
R = Cc1cc(-c2[nH]c3ccc(C4CCN(C(=O)C5CCOCC5)CC4)cc3c2C(C)C)ccn1
Ask | Ascending by pIC50, please. # answer = labels listed in requested order
Reply | R, P, Q
(R: 7.34, P: 7.95, Q: 8.38)

---

# system: UniProt Q9NR96
# Sequence (Q9NR96 26-1032): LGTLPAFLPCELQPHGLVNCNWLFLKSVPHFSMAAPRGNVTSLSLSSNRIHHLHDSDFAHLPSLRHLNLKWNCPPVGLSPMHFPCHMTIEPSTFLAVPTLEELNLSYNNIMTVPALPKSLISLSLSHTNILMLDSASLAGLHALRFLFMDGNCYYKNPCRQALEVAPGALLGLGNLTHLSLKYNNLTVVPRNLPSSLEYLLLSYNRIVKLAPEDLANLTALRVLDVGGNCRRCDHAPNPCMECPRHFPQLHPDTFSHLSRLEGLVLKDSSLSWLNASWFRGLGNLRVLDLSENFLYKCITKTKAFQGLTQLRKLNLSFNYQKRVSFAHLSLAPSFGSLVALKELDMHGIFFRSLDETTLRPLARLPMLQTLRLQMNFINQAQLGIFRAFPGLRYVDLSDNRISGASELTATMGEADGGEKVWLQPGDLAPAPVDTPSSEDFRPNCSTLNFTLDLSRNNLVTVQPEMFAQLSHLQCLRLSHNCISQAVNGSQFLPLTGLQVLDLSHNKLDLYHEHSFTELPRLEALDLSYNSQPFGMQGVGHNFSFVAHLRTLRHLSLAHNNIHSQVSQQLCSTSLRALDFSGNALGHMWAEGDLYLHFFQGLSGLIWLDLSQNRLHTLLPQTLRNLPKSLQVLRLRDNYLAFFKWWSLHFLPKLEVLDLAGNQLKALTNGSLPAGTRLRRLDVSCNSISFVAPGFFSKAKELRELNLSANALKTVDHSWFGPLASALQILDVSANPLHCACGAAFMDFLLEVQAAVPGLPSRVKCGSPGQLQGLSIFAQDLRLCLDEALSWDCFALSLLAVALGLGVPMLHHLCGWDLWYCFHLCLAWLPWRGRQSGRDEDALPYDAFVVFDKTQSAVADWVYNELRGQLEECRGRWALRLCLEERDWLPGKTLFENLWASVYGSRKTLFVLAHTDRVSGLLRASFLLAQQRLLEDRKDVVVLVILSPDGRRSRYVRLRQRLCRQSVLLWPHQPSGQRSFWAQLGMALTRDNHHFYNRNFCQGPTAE
# assay.details: TLR9 inhibition reporter assay (HEK-Blue cells, SEAP reporter, ODN2006 stimulation);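 further: compounds tested over 0.05 nM to 50 µM, 22 h incubation, inhibition taken as SEAP signal drop from agonist plus DMSO wells toward a known inhibitor control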
# run.conditions: read-out: TLR9 IC50, HEK-Blue cells overexpressing human TLR9, ODN2006 5 nM
pIC50: −log10 of the molar value.
observed.property: pIC50

1. CC(C)c1c(-c2cc(C3CC3)ncc2F)[nH]c2ccc(C3CCNCC3)cc12 ... 6.17
2. Cc1cc(-c2[nH]c3ccc(C4CCN(CC(=O)N5CCCC(C)(C)C5)CC4)cc3c2C(C)C)cc(C)n1 ... 6.01
3. Cc1cc(-c2[nH]c3ccc(C4CCNCC4)c(F)c3c2C(C)C)ccn1 ... 6.36
4. Cc1cc(-c2[nH]c3ccc(C4CCN(C(=O)[C@@H]5CCC[C@H](N)C5)CC4)cc3c2C(C)C)ccn1 ... 6.14

I = Cc1cc(-c2[nH]c3ccc(C4CCN(CCCN(C)C)CC4)cc3c2C(C)C)cc(C)n1
II = Cc1cc(-c2[nH]c3ccc(C4CCN(C(=O)CN(C)CCF)CC4)cc3c2C(C)C)cc(C)n1
III = CO[C@@H]1C[C@H](CO)N(C(=O)CN2CCC(c3ccc4[nH]c(-c5cc(C)nc(C)c5)c(C(C)C)c4c3)CC2)C1
Ask | Please give the order of these compounds when sorted by pIC50, largest value leading. # format: label list in the order the request specifies
Reply | I, III, II
(I: 6.81, III: 6.44, II: 6.18)

---

# system: human TLR8 (Homo sapiens (Human))
# Sequence (Q9NR97 27-1041): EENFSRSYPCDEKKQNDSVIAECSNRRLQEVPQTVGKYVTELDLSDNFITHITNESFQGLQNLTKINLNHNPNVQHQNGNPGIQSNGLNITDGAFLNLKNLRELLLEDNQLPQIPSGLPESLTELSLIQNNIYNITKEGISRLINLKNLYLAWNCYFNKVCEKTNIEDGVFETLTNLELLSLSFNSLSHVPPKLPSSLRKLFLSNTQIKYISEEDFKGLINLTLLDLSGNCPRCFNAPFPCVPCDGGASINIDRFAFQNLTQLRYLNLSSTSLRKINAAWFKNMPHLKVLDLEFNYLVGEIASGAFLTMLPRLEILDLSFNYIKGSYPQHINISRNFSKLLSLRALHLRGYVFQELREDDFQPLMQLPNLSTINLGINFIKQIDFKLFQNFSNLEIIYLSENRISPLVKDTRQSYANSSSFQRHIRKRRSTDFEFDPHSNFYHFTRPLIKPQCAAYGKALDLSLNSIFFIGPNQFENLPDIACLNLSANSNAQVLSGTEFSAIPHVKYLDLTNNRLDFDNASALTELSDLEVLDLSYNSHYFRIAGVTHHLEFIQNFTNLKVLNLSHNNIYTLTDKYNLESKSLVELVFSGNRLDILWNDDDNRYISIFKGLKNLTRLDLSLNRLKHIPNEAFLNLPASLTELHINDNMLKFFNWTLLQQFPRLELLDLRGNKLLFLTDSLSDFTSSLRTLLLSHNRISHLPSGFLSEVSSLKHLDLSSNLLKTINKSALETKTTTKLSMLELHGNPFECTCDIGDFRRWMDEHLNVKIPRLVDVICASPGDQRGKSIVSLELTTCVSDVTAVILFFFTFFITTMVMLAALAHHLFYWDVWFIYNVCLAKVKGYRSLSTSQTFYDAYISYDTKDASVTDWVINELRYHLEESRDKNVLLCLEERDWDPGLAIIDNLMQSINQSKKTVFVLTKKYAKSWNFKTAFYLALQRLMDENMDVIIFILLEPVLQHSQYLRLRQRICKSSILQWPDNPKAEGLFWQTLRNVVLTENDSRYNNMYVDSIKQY
# assay.details: TLR8 inhibition reporter assay (HEK-Blue cells, SEAP reporter, R848 stimulation);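 further: compounds tested from 0.05 nM to 50 µM, 22 h at 37 °C, SEAP measured with HEK-Blue Detection, inhibition relative to agonist plus DMSO versus a known inhibitor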
# run.conditions: read-out: TLR8 IC50, HEK-Blue cells overexpressing human TLR8, R848 15.9 μM
pIC50: −log10 of the molar value.
observed.property: pIC50

A = Cc1cc(-c2[nH]c3ccc(C4CCN(CC5(C)COC5)CC4)cc3c2C(C)C)cc(C)n1
B = COC(=O)c1c(-c2cc(C)nc(C)c2)[nH]c2ccc(C3CCNCC3)cc12
C = CCc1c(-c2ccnc(C)c2)[nH]c2ccc(C3CCN(C(=O)CCN(C)C)CC3)cc12
D = Cc1cc(-c2[nH]c3ccc(C4CCN(Cc5cc(C)on5)CC4)cc3c2C(C)C)c(F)cn1
Ask | Highest pIC50 first, then in falling order down to the smallest. Use the labels to give the ranking in the order requested.
Reply | A, D, C, B
(A: 8.66, D: 8.39, C: 7.40, B: 4.90)

---

# system: UniProt:Q9NYK1
# assay.details: TLR7 inhibition reporter assay (HEK-Blue cells, SEAP reporter, gardiquimod stimulation)
# Type: cell-based
# run.conditions: HEK-Blue cells overexpressing human TLR7, gardiquimod 7.5 μM
observed.property: IC50 (nM)

1) Cc1cc(-c2[nH]c3ccc(C4CCN(Cc5ncco5)CC4)cc3c2C(C)C)c(F)cn1 [Example 700] ... 55.8
2) Cc1cc(-c2[nH]c3ccc(C4CCN(C(=O)CCNS(=O)(=O)c5ccccc5)CC4)cc3c2C(C)C)cc(C)n1 [Example 120] ... 12.5
3) CC(C)c1c(-c2ccnc(C3CC3)c2)[nH]c2ccc(C3CCNCC3)cc12 [Example 483] ... 46.2
4) CCc1c(-c2ccnc(NC(C)=O)c2)[nH]c2ccc(C3CCN(C4CCN(CC(C)C)CC4)CC3)cc12 [Example 766] ... 3980
5) Cc1cc(-c2[nH]c3ccc(C4CCNCC4)c(F)c3c2C(C)C)ccn1 [Example 76] ... 1.4

I = Cc1cc(-c2[nH]c3ccc(C4CCN(C(=O)CN5CCCCC5)CC4)cc3c2C(C)C)cc(C)n1 [Example 351]
II = Cc1cc(-c2[nH]c3ccc(C4CCN(C(=O)CN(C(C)C)C(C)C)CC4)cc3c2C(C)C)cc(C)n1 [Example 153]
III = Cc1cc(-c2[nH]c3ccc(C4CCN(C(=O)CN(C)C)CC4)cc3c2C(C)C)cc(C)n1 [Example 98]
Ask | Ordering: ascending IC50. Output spec: a listing of the labels in the requested order.
Reply | III, I, II

---

# system: human TLR7 (Homo sapiens (Human))
# assay.details: TLR7 inhibition reporter assay (HEK-Blue cells, SEAP reporter, gardiquimod stimulation)
# Assay type: cell-based
# run.conditions: HEK-Blue cells overexpressing human TLR7, gardiquimod 7.5 μM
observed.property: IC50 (nM)

Recorded results for 3 molecules are shown here.
1) Cc1cc(-c2[nH]c3ccc(C4CCN(C(=O)CCN(C)C)CC4)cc3c2C(C)C)cc(C)n1 ... 1.3
2) CCC(C)CN(CCO)C(=O)CN1CCC(c2ccc3[nH]c(-c4cc(C)nc(C)c4)c(C(C)C)c3c2)CC1 (stereo not shown) ... 13.4
3) CCCN(CCO)C(=O)CN1CCC(c2ccc3[nH]c(-c4cc(C)nc(C)c4)c(C(C)C)c3c2)CC1 ... 30

1 = CCc1c(-c2ccnc(-n3ccnc3)c2)[nH]c2ccc(C3CCNCC3)cc12
2 = CCN(CCO)C(=O)CN1CCC(c2ccc3[nH]c(-c4cc(C)nc(C)c4)c(C(C)C)c3c2)CC1
3 = CNCCN1CCC(c2ccc3[nH]c(-c4ccnc(OC)c4)c(C)c3c2)CC1
4 = Cc1cc(-c2[nH]c3ccc(C4CCN(Cc5cn(C)nn5)CC4)cc3c2C(C)C)cc(C)n1
5 = Cc1cc(-c2[nH]c3ccc(C4CCN(C(=O)C(F)(F)F)CC4)cc3c2C(C)C)ccn1
Ask | Please order the records by their reported IC50, lowest number first. // rank by listing labels in the order requested
Reply | 4, 2, 5, 3, 1
(4: 5.3 nM, 2: 14.1 nM, 5: 119 nM, 3: 515 nM, 1: 1010 nM)

1 = Cc1cc(-c2[nH]c3ccc(C4CCN(C)CC4)cc3c2C(C)C)c(F)cn1
2 = Cc1cc(-c2[nH]c3ccc(C4CCN(C(=O)C5CCCO5)CC4)cc3c2C(C)C)cc(C)n1 (stereo not shown)
3 = CC(C)c1c(-c2ccncc2F)[nH]c2ccc(C3CCNCC3)cc12
4 = Cc1cc(-c2[nH]c3ccc(C4CCN(CCC(F)(F)F)CC4)cc3c2C(C)C)ccn1
Ask | Please give the order of these molecules when sorted by IC50, largest value leading. Output spec: labels arranged per the requested ranking.
Reply | 3, 4, 2, 1
(3: 590 nM, 4: 19 nM, 2: 8.6 nM, 1: 5.6 nM)
